Data provenance is patent US20250243282A1.

test_target: Recombinant human Gal3 (rhGal3) (TrueBinding, #QC200361) (human, UniProt P17931 2-250); further: test concentration or dose not given here
assay_text: cell-based or functional assay
Hi there, I'd appreciate the recorded % inhibition of TNFα secretion for every entry that follows.
Field: numeric (%). Do not append units.

Query: # lookup: % inhibition of TNFα secretion of 6B3.2D3 (antibody, human IgG4 S228P, kappa, V domains shown) VH: QVQLKQSGPGLVQPSQSLSITCTVSGFSLTSYGVHWVRQPPGKGLEWLGVIWSGGSTDYNAAFISRLSISKDNSKSQVFFKMNSLQADDTAIYYCAKGPYDYDLGWFAYWGQGTLVTVSA VL: SIVMTQTPKFLLVSAGDRVTITCKASQSVSNDVAWYQQKPGQSPKLLIYYASNRYTGVPDRFTGSGYGTDFTFTISTVQAEDLAVYFCQQDYTSPYTFGGGTKLEIKR
Result: -1.2

Query: Try F846C.1F5 (antibody, human IgG4 S228P, kappa, V domains shown) VH: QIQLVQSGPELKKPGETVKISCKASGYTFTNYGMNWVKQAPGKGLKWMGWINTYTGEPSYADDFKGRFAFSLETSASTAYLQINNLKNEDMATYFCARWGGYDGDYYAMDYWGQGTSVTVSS VL: NIMMTQSPSSLAVSAGEKVTMSCKSSQSVLYSSNQKNYLAWYQQKPGQSPKLLIYWASTRESGVPDRFTGSGSGTDFTLTISSVQPEDLAVYYCHQYLSSLTFGAGTKLELKR next.
Result: 51.7
